Data provenance: patent US20180250395A1

# study.target: T1, Cyno CD47 ECD protein, His-tagged, monomer (cyno)
# T1 construct: extracellular domain; also called cynomolgus CD47
# experiment.description: ProteOn SPR; mAb captured, ECD monomer as analyte
Form field: Kd (one value per entry).
Write the answer as a number in nM, unit excluded.

Incoming: Consider the binder shown here: C47B91 (antibody, human IgG2, V domains shown, phage-derived; also called C47M91; parent C47B91) VH: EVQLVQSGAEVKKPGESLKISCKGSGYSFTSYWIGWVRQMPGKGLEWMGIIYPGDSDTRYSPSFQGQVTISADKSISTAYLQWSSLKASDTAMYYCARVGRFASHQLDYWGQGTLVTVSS VL: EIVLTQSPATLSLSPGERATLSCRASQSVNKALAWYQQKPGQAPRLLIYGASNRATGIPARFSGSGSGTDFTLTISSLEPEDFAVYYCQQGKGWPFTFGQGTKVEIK What is its recorded Kd?
Outgoing: 17.8

# context switch: different binder, same Kd
Incoming: Consider the binder shown here: C47B244 (antibody, V domains shown, human IgG2sigma/kappa) VH: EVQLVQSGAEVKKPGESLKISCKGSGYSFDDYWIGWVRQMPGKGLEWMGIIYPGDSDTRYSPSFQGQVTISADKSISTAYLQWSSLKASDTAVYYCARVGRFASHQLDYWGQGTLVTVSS VL: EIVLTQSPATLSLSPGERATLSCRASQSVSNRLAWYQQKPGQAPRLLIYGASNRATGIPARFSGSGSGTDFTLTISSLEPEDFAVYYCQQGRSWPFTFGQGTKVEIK What is its recorded Kd?
Outgoing: 1.55
